Population Pyknosed Nuclei (%) by entry:
- System: HEK-293T
- experimentalProtocol: Multiplex assay against HEK293T
- Format: toxicity, cell-based
- runParameters: human, 48 h, 1 µM, compound concentration 1 uM, replicate 2
Returns: string containing the numeric result and its unit.

[in] GET /values?readout=Population Pyknosed Nuclei (%)&item= C=CC(=O)Nc1cccc(C(=O)Nc2ccc(Nc3cc(-c4[nH]c(SC)nc4C)ccn3)cc2)c1
[out] 13%

More entries:
[in] GET /values?readout=Population Pyknosed Nuclei (%)&item= COc1cccc([C@@H](C)NCCCc2ccccc2Cl)c1.Cl [TECALCET HYDROCHLORIDE]
[out] 16%

[in] GET /values?readout=Population Pyknosed Nuclei (%)&item= CC(C)(O)CNc1ncc(-c2ccnc(Nc3ccnc(Cl)c3)n2)c(CC2CC2)n1
[out] 26%

[in] GET /values?readout=Population Pyknosed Nuclei (%)&item= CN1CCC[C@@H]1CCO[C@](C)(c1ccccc1)c1ccc(Cl)cc1.O=C(O)/C=C/C(=O)O [CLEMASTINE FUMARATE]
[out] 13%

[in] GET /values?readout=Population Pyknosed Nuclei (%)&item= Cc1cc(C)cc(-c2cnc3cc(Cl)c(-c4cccc(O)c4)cc3c2OCCCN)c1
[out] 19%

[in] GET /values?readout=Population Pyknosed Nuclei (%)&item= CN1CCN(CCOc2cc(OC3CCOCC3)c3c(Nc4c(Cl)ccc5c4OCO5)ncnc3c2)CC1 [SARACATINIB]
[out] 25%

* * *

- Tested on: U2OS
- experimentalProtocol: Multiplex assay against U2OS
- Format: toxicity, cell-based
- runParameters: human, 12 h, 1 µM, compound concentration 1 uM, replicate 2
Population Membrane Permeable-Phenotype (%) by entry:
Write the value in % as a bare number.

Known Population Membrane Permeable-Phenotype (%) results, listed for orientation:
[in] GET /values?readout=Population Membrane Permeable-Phenotype (%)&item= CC(C)NCC(O)COc1ccc(CCOCC2CC2)cc1.Cl (configuration not stated) [BETAXOLOL HYDROCHLORIDE]
[out] 6

[in] GET /values?readout=Population Membrane Permeable-Phenotype (%)&item= Cl.N#Cc1ccc2[nH]cc(CCCCN3CCN(c4ccc5oc(C(N)=O)cc5c4)CC3)c2c1 [VILAZODONE HYDROCHLORIDE]
[out] 6

[in] GET /values?readout=Population Membrane Permeable-Phenotype (%)&item= CN(C)C(=O)N[C@H]1CC[C@H](CCN2CCN(c3cccc(Cl)c3Cl)CC2)CC1.Cl [CARIPRAZINE HYDROCHLORIDE]
[out] 6

[in] GET /values?readout=Population Membrane Permeable-Phenotype (%)&item= CN(C)C(=O)/C(C#N)=C/c1ccc(-c2nc3cnc4[nH]ccc4c3n2C2CCCCC2)o1
[out] 2

[in] GET /values?readout=Population Membrane Permeable-Phenotype (%)&item= CC[C@H](C)C(=O)O[C@H]1C[C@@H](C)C=C2C=C[C@H](C)[C@H](CC[C@@H]3C[C@@H](O)CC(=O)O3)[C@H]21
[out] 3

[in] GET /values?readout=Population Membrane Permeable-Phenotype (%)&item= CN(C)CC#Cc1ccc(OCCCc2sc(N3CCc4cccc(C(=O)Nc5nc6ccccc6s5)c4C3)nc2C(=O)O)c(F)c1
[out] 13

Next molecule, please.
[in] GET /values?readout=Population Membrane Permeable-Phenotype (%)&item= CCN(CC)CCCCNc1ncc2cc(-c3cc(OC)cc(OC)c3)c(NC(=O)NC(C)(C)C)nc2n1
[out] 64
